Overview of reported IC50 across a group of molecules:
Target: angiotensin converting enzyme (ACE) (Homo sapiens)
Construct: purchased Dojindo Inc., Kumamoto, Japan ACE kit-WST
Sequence (P12821 30-1306, species assumed): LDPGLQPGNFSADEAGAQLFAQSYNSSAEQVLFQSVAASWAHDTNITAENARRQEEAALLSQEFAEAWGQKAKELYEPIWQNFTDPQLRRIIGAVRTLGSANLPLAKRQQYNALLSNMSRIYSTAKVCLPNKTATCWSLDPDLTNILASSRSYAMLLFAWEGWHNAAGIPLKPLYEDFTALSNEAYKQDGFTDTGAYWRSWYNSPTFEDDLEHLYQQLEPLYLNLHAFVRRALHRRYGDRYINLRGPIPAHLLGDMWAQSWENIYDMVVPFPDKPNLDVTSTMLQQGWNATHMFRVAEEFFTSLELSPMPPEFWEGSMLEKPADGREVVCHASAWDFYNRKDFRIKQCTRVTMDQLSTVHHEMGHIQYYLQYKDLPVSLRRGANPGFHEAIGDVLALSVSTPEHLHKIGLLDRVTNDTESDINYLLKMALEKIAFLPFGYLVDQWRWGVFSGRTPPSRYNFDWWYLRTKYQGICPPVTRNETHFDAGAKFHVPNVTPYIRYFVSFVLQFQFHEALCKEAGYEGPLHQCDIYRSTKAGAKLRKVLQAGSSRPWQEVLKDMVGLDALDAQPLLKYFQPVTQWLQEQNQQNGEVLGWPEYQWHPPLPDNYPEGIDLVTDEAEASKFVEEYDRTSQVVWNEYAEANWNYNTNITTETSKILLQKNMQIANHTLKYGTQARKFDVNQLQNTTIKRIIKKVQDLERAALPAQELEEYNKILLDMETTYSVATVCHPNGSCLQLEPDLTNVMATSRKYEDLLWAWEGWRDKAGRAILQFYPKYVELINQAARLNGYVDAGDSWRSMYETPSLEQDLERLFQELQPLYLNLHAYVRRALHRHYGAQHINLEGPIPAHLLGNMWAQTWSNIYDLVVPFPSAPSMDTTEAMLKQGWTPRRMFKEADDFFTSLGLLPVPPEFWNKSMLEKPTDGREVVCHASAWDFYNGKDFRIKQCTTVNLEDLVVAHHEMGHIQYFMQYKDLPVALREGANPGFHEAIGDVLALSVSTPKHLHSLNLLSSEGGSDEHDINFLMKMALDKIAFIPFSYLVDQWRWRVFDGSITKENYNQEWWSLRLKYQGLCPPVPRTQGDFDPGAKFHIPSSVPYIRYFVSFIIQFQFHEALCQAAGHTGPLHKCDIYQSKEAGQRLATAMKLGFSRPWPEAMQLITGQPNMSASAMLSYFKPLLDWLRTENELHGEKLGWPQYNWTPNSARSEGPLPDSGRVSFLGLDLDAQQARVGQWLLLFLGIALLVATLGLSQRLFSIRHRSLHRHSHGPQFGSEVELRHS
Assay: ACE inhibitory activity, colorimetric detection system (ACE kit-WST)
Assay type: biochemical
Details: synthetic peptides; mean ± SD, n = 3; read-out: IC50 (μM) for ACE of corresponding synthetic peptides
Residues, ends and D or L forms follow the SMILES beside them.
outcomeMeasure: IC50

>  <molecule>
CC(C)C[C@H](NC(=O)[C@H](CO)NC(=O)[C@@H]1CCCN1C(=O)[C@H](CC(C)C)NC(=O)[C@@H](N)C(C)C)C(=O)N[C@@H](CC(N)=O)C(=O)O [VLPSLN] (H-VLPSLN-OH)

>  <testResult>
1250 µM

$$$$
>  <molecule>
CC(C)[C@H](NC(=O)[C@H](C)N)C(=O)N[C@@H](CCC(N)=O)C(=O)O [AVQ] (H-Ala-Val-Gln-OH)

>  <testResult>
181 µM

$$$$
>  <molecule>
NC(=O)CC[C@H](NC(=O)[C@@H]1CCCN1C(=O)[C@@H](N)Cc1ccc(O)cc1)C(=O)O [YPQ] (H-Tyr-Pro-Gln-OH)

>  <testResult>
220 µM

$$$$
>  <molecule>
CC(C)C[C@H](NC(=O)[C@H](Cc1ccc(O)cc1)NC(=O)[C@H](C)N)C(=O)N[C@@H](CCC(N)=O)C(=O)O [AYLQ] (H-AYLQ-OH)

>  <testResult>
229 µM

$$$$
>  <molecule>
CC(C)C[C@H](NC(=O)[C@@H](NC(=O)[C@@H]1CCCN1C(=O)[C@H](CC(C)C)NC(=O)[C@@H](N)C(C)C)C(C)C)C(=O)N[C@@H](CO)C(=O)O [VLPVLS] (H-VLPVLS-OH)

>  <testResult>
248 µM

$$$$
>  <molecule>
CC(C)C[C@H](NC(=O)[C@H](CCC(N)=O)NC(=O)[C@@H](N)CC(N)=O)C(=O)O [NQL] (H-Asn-Gln-Leu-OH)

>  <testResult>
705 µM

$$$$
